Catalogue of furin cleavage Z-score values
Biological target: furin, P09958;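 note: purified furin at 1:10 enzyme:substrate in 50 mM HEPES pH 7.5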
Sequence (P09958 whole entry): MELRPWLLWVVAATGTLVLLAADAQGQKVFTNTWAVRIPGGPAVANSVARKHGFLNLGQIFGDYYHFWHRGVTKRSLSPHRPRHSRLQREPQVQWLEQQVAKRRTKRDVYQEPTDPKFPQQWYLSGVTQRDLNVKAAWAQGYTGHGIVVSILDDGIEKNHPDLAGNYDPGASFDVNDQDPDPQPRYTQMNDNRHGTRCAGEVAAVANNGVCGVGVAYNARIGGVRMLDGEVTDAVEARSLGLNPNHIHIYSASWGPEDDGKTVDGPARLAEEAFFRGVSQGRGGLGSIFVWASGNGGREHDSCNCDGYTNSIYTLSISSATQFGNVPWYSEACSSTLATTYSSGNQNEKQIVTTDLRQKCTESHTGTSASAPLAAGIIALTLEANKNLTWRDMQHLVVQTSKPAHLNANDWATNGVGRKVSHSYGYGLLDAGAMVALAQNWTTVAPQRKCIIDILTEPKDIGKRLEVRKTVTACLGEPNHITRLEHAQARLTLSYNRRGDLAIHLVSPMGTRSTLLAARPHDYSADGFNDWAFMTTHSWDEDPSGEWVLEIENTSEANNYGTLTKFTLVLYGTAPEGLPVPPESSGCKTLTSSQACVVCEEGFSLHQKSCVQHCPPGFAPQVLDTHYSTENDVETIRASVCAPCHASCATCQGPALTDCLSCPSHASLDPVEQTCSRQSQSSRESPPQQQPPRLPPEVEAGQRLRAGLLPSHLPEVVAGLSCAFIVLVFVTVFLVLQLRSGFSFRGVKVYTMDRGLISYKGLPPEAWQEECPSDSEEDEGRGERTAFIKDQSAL
Assay: furin cleavage Z-score vs untreated control; higher = more cleavage, active = 3.5 or more, inactive = 1 or less, 8 variable residues between constant flanks
Conditions: 15 min
The list shows a part of the results. The true hit rate is not given.
readoutKind: furin cleavage Z-score

- CAMEQCSQHLAGNASASA [HC1722]: 1.08
- CARETRYVELAGNASASA [FS-2918]: 0.951
- CARETRSARDAGNASASA [FS-186]: 4.67
- CAEVVCSTWVAGNASASA [HC134]: -0.0617
- CATSPCSGSWAGNASASA [HC1857]: -0.0771
- CARETRSFTKAGNASASA [FS-1699]: -1.13
- CAHFLSQTKQAGNASASA [HC946]: -0.0771
